Tested system: Gadd45β/MKK7 complex (biotin-hGadd45β with coated GST-MKK7, ELISA format) (human) (UniProt O75293)
Sequence (biotinylated (sites not stated), looked up) 1: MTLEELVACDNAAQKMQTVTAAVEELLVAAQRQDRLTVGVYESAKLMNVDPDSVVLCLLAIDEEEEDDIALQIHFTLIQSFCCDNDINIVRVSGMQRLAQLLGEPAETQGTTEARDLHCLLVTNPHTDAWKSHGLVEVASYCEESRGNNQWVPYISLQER
Sequence (biotinylated (sites not stated), looked up) 2: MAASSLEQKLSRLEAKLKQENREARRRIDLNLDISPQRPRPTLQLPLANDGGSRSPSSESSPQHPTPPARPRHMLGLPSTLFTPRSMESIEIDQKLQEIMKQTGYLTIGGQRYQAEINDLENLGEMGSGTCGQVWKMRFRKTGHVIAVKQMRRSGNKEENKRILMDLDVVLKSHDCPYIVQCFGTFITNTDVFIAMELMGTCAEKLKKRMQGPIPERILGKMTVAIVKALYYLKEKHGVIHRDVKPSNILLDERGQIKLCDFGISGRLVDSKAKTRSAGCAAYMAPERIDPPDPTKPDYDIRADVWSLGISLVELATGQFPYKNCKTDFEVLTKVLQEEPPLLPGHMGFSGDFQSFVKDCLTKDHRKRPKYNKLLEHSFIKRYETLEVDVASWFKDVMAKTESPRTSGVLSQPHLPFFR
Protocol summary: competition ELISA; coated GST-MKK7 42 nM, biotin-hGadd45β 21 nM
pIC50: −log10 of the molar value. * marks the point of attachment. Cbz = O=C(OCc1ccccc1)*
Readout: pIC50

Substance	pIC50
Z-Tyr-Glu-Phe-NH2 (mDTP2) (peptide)	9.80
Ac-Tyr-Asn-Phe-NH2 (peptide)	8.72

(A) Cbz-Tyr-Arg-Phe-NH2
(B) Ac-Tyr-Leu-Phe-NH2 (peptide)
(C) Cbz-Tyr-Asp-Phe-NH2
Parameters: sort_field (pIC50), sort_dir (desc). Output the labels ranked as instructed. A, C, B
